System: Beta-galactosidase (Escherichia coli), counter-screen for EBI2 antagonists
Assay: E. coli beta-galactosidase enzyme inhibition, confirmation, counter-screen for EBI2 antagonist project, biochemical, luminescence, single concentration (AID 652176);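 further: 0% = DMSO wells with enzyme and 100% = wells lacking enzyme; higher means stronger loss of beta-gal luminescence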
Conditions: purified beta-galactosidase, luminescent Galacton Star, 15 min; at 5 µM; active compounds read high
The campaign covered roughly 2,400 compounds. About 25 (1%) were called active. Not all results are given here.
property_measured: inhibition (%)
Supply the numeric figure in %, leaving out any unit text.

>>> observed("CC(C)Cn1c(N2CCN(C(=O)/C=C/c3ccccc3)CC2)nc2ccccc21")
-6.12
>>> observed("COc1ccc(N(CC(=O)Nc2cc(OC)ccc2OC)S(=O)(=O)c2c(C)noc2C)cc1")
6.51
>>> observed("O=C(COc1ccc(Cl)cc1)N1CCN(S(=O)(=O)c2ccc(Cl)cc2)CC1")
6
>>> observed("Cc1ccc(O/C=C2\\OC(=O)c3ccccc32)cc1")
-6.52
>>> observed("Cc1nc2ccc(C(=O)N3CCN(c4ccccc4)CC3)cc2s1")
-10.1

Looking for the measured inhibition of O=C(c1ccc(-n2cnnn2)cc1)N1CCN(C(c2ccccc2)c2ccccc2)CC1 , can you help?
5.89

Please report the recorded inhibition for Cc1ccc(-n2ncc3c(=O)n(-c4ccc(C)c(C)c4)c(-c4ccco4)nc32)cc1 .
-11.1

Return reported inhibition; argument: N#Cc1ccc(C(c2nnnn2CCc2ccccc2)N2CCCCCC2)cc1 (stereo not given)
7.67

What value of inhibition has been reported for the following compound? Cc1cccc(N2CCN(C(=O)c3cc4c(=O)[nH]c5ccccc5c4n3C)CC2)c1C
5.01

Can you look up the measured inhibition of CC(C)N(Cc1ccccc1)C(=S)Nc1ccc(OC(F)F)cc1 for me?
7.71
